# targetOfAssay: T1, APMA-activated human MMP-1 enzyme active domain (human, UniProt P03956 100-269)
# T1 chain: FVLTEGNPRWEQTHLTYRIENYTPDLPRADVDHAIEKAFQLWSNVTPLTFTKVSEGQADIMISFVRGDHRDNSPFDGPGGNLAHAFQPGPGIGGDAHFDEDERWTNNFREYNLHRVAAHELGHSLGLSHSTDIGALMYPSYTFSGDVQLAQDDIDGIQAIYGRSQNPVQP
# protocolSummary: enzyme inhibition
readout: IC50

1. active MMP-9-binding peptide M91004 (designed binder) GSGMKETAAAKFERQHMDSPDLGTDDDDKAMADIGSANSDPQFGLFSKYRTPNCRQRKGPSCQMAFQPVCGSDMSTYANECTLCMKIREGGHNIKIIRNGPCGASAAA : > 1000 nM
2. active MMP-9-binding peptide M91011 (designed binder) GSGMKETAAAKFERQHMDSPDLGTDDDDKAMADIGSANSDPQFGLFSKYRTPNCMMYKYAQCSHKSQPVCGSDMSTYANECTLCMKIREGGHNIKIIRNGPCGASAAA : > 1000 nM
3. active MMP-9-binding peptide M91010 (designed binder) GSGMKETAAAKFERQHMDSPDLGTDDDDKAMADIGSANSDPQFGLFSKYRTPNCRKVGEPACQMSFNPVCGSDMSTYANECTLCMKIREGGHNIKIIRNGPCGASAAA : > 1000 nM
4. active MMP-9-binding peptide M91002 (designed binder) GSGMKETAAAKFERQHMDSPDLGTDDDDKAMADIGSANSDPQFGLFSKYRTPNCRTGRGPACQMGFQPVCGSDMSTYANECTLCMKIREGGHNIKIIRNGPCGASAAA : > 1000 nM
